# Emax per record follows
Target: Muscarinic acetylcholine receptor M1 (Homo sapiens) (UniProt P11229)
Assay: Positive allosteric modulation of human wild type M1 receptor assessed as increase in acetylcholine-induced calcium flux by FLIPR assay relative to acetylcholine
Assay type: functional

// below: answered molecules
> print(dat)
                                   molecule  property.name  reported.value
1  FC(F)(F)c1ccc2c(c1)C(c1ccccc1)=NCC(=S)N2           Emax             92%
2          SC1=Nc2ccc(Cl)cc2C(c2ccccc2)=NC1           Emax       82 to 92%

Looking up CC1N=C(c2ccccc2)c2ccccc2NC1=S (racemic) , I see its Emax listed as 88%

Looking up Fc1ccccc1C1=N[C@@H](C2CC2)C(=S)Nc2ccc(Cl)cc21 , I see its Emax listed as 79%

Looking up CC(C)[C@@H]1N=C(c2ccccc2)c2cc(Cl)ccc2NC1=O , I see its Emax listed as 90%

Looking up CC[C@@H]1N=C(c2ccccc2)c2cc(Cl)ccc2NC1=S , I see its Emax listed as 66%

Looking up C[C@@H]1N=C(c2ccccc2)c2cc(Cl)ccc2NC1=S , I see its Emax listed as 67%

* * *

Molecular target: Muscarinic acetylcholine receptor M1 (Homo sapiens, UniProt P11229, W400A/Y179A)
Sequence (P11229 whole entry Y179A/W400A): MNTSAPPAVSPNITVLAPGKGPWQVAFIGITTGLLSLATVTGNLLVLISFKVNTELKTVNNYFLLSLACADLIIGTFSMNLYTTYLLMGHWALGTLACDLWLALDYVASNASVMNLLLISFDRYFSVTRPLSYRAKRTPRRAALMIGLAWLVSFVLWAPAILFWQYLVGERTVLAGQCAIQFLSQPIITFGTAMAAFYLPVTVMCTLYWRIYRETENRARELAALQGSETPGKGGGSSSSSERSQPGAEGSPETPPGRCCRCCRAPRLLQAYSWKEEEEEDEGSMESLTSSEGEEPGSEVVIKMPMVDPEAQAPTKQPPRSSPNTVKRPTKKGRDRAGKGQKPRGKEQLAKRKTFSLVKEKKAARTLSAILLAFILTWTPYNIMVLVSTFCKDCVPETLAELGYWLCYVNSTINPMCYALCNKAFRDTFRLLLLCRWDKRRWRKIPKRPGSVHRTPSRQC
Experiment: Positive allosteric modulation of M1 receptor Y179A/W400A mutant (unknown origin)
Property name: pEC50
The quantity pEC50 is defined as the negative base-10 logarithm of the molar concentration.

Looking up CC(C)[C@@H]1N=C(c2ccccc2F)c2cc(Cl)ccc2NC1=S , I see its pEC50 listed as 6.75

* * *

Assay: Displacement of [3H]-Ro 15-1788 from rat brain synaptosomal membranes GABA receptor after 90 mins
Property name: pEC50
The quantity pEC50 is defined as the negative base-10 logarithm of the molar concentration.

Looking up CC(C)[C@@H]1N=C(c2ccccc2)c2cc(Cl)ccc2NC1=O , I see its pEC50 listed as 4.24

Looking up CC1N=C(c2ccccc2)c2ccccc2NC1=S (racemic) , I see its pEC50 listed as 7.21

Looking up CC(C)[C@H]1N=C(c2ccccc2)c2cc(Cl)ccc2NC1=S , I see its pEC50 listed as 3.57

Looking up CC(C)[C@@H]1N=C(c2ccccc2)c2cc(Cl)ccc2N(C)C1=S , I see its pEC50 listed as 4.14

Looking up C[C@@H]1N=C(c2ccccc2)c2ccccc2NC1=S , I see its pEC50 listed as 4.17

* * *

Biological target: GABA-A receptor; alpha-1/beta-2/gamma-2 (Rattus norvegicus, UniProt P18508+P62813+P63138)
Sequence (P18508 whole entry): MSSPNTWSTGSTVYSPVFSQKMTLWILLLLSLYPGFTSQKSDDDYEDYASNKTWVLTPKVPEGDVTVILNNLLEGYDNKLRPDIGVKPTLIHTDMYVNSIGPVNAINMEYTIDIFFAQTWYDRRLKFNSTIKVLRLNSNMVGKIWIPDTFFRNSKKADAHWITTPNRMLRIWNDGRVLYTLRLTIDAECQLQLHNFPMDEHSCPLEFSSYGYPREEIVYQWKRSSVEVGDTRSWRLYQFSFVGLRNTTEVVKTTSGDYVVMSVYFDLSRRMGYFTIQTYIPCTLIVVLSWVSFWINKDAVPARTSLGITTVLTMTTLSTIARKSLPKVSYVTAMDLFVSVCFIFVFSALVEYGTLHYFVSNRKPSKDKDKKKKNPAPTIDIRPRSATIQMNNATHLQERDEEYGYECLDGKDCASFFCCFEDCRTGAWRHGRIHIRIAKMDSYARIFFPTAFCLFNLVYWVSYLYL
Sequence (P62813 whole entry): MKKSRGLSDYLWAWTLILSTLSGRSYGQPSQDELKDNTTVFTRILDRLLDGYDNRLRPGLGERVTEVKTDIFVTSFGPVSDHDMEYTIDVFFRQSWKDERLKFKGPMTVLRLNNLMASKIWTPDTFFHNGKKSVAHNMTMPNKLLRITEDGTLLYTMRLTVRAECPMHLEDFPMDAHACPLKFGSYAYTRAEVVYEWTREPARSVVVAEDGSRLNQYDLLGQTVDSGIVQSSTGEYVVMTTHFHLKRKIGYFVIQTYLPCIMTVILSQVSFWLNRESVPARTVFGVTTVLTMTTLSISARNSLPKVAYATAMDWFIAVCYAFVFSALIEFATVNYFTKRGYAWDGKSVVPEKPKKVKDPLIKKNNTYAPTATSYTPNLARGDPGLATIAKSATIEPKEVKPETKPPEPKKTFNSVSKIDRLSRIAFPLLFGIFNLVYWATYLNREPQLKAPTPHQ
Sequence (P63138 whole entry): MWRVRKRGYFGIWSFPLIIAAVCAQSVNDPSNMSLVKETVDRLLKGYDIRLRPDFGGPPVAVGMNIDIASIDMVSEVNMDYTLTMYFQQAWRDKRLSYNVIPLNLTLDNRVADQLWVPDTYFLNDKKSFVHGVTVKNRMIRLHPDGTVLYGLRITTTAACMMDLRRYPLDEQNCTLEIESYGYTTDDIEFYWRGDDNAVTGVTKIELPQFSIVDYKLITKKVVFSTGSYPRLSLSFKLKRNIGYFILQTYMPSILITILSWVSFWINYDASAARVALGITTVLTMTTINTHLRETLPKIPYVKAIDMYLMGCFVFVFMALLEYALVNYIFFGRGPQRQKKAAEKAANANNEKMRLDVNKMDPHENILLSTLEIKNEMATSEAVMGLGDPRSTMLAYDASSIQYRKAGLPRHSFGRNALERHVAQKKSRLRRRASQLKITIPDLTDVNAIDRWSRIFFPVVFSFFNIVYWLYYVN
Assay: […] rat GABA-A receptor alpha1beta2gamma2 expressed in HEK293 cells by electrophysiology assay
Type: cell-based
Property name: EC50

Looking up CC(C)[C@@H]1N=C(c2ccccc2)c2cc(Cl)ccc2NC1=S , I see its EC50 listed as > 24 µM

* * *

Biological target: GABA A receptor alpha-5/beta-3/gamma-2 (Rattus norvegicus, UniProt P18508+P19969+P63079)
Sequence (P19969 whole entry, one chain of several): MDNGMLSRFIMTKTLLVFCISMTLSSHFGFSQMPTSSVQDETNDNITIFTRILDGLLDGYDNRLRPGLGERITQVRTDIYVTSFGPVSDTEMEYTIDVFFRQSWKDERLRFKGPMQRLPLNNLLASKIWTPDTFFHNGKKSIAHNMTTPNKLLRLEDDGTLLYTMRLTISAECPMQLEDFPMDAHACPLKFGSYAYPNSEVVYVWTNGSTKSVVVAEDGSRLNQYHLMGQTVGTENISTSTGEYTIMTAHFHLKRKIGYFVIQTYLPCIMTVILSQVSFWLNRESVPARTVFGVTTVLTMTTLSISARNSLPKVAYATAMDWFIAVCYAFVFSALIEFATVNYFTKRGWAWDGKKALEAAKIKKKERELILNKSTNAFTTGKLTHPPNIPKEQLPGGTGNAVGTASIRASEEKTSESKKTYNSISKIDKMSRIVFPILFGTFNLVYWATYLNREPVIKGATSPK
Sequence (P63079 whole entry, one chain of several): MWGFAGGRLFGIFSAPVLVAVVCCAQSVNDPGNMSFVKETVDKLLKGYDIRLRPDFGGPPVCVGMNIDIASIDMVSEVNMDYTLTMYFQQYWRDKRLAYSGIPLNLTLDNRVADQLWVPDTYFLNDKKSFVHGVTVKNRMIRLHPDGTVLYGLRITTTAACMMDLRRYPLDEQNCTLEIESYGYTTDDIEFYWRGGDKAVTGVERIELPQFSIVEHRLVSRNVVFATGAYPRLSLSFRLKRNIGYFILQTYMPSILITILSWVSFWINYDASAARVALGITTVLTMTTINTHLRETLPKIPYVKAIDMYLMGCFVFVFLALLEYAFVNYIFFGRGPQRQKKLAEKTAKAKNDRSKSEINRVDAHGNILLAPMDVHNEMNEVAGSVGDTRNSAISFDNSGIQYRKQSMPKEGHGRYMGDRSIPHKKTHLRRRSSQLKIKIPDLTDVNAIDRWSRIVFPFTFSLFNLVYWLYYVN
Assay: […] rat GABA-A receptor alpha5beta3gamma2 expressed in HEK293 cells by electrophysiology assay
pEC50: −log10 of the molar value.
Property name: pEC50

Looking up CC(C)[C@@H]1N=C(c2ccccc2)c2cc(Cl)ccc2NC1=S , I see its pEC50 listed as < 4.62

* * *

# pEC50 per record follows
Molecular target: Muscarinic acetylcholine receptor M1 (Homo sapiens)
Assay: Positive allosteric modulation of human wild type M1 receptor assessed as increase in acetylcholine-induced calcium flux by FLIPR assay
The quantity pEC50 is defined as the negative base-10 logarithm of the molar concentration.

// below: answered molecules
> print(dat)
                            chemical.smiles  property.name  reported.value
1  COc1ccc2c(c1)C(c1ccccc1)=N[C@@H](C(C)C)C(=S)N2          pEC50            6.25
2  CC(C)[C@@H]1N=C(c2ccccc2)c2cc(Cl)ccc2NC1=O          pEC50            6.11
3         Fc1ccccc1C1=NCC(=S)Nc2ccc(Cl)cc21          pEC50            6.50

Looking up Fc1ccccc1C1=N[C@@H](c2ccccc2)C(=S)Nc2ccc(Cl)cc21 , I see its pEC50 listed as 5.83

* * *

Target: Muscarinic acetylcholine receptor M1 (Homo sapiens)
Assay: Positive allosteric modulation of human wild type M1 receptor assessed as increase in acetylcholine-induced calcium flux by FLIPR assay relative to acetylcholine
Format: functional
# Emax per record follows
Just the number please, in %, no unit attached.

// below: answered compounds
> print(dat)
                                   compound  property.name  reported.value
1          Fc1ccccc1C1=NCC(=S)Nc2ccc(I)cc21           Emax              63
2         Fc1ccccc1C1=CCC(=S)Nc2ccc(Cl)cc21           Emax              95
3  CC(C)(O)C1N=C(c2ccccc2)c2cc(Cl)ccc2NC1=S (racemic)           Emax             113

Looking up S=C1CN=C(c2ccccc2)c2cc(Br)ccc2N1 , I see its Emax listed as 92

Looking up CC(C)C[C@@H]1N=C(c2ccccc2)c2cc(Cl)ccc2NC1=S , I see its Emax listed as 107

Looking up CC(C)[C@@H]1N=C(c2cccc(Cl)c2)c2cc(Cl)ccc2NC1=S , I see its Emax listed as 112

* * *

Target: Muscarinic acetylcholine receptor M1 (Homo sapiens)
Experiment: Positive allosteric modulation of human wild type M1 receptor assessed as increase in acetylcholine-induced calcium flux by FLIPR assay
Assay type: functional
pEC50: −log10 of the molar value.
# pEC50 per record follows

> print(dat)
                                   compound  reported.value
1  CC(C)[C@@H]1N=C(c2ccccc2)c2cc(Cl)ccc2N(C)C1=S          < 5.00
2  CCC1N=C(c2ccccc2)c2cc(N)ccc2NC1=S (centres undefined)          < 5.00
3          SC1=Nc2ccc(Cl)cc2C(c2ccccc2)=NC1    6.07 to 6.74

Read the next record carefully.
The compound S=C1Nc2ccc(Cl)cc2C(c2ccccc2)=NC1n1ccnc1 (racemic) , tested on Muscarinic acetylcholine receptor M1 (Homo sapiens), showed pEC50 of < 5.00

* * *

Target: Muscarinic acetylcholine receptor M1 (Homo sapiens) (UniProt P11229)
Sequence (whole entry): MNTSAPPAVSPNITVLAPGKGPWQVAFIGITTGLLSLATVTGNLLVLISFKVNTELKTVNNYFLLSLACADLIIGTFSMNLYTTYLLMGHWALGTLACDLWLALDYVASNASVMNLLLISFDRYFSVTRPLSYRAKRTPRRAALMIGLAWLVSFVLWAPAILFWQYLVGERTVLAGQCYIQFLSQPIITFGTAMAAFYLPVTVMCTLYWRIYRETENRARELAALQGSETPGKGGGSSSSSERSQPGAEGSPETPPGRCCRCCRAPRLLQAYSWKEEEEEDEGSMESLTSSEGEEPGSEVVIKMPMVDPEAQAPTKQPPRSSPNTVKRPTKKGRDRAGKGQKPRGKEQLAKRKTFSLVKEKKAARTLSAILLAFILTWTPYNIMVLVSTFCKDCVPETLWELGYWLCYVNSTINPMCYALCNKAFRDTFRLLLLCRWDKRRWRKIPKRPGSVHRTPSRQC
Test: Positive allosteric modulation of human wild type M1 receptor assessed as increase in acetylcholine-induced calcium flux by FLIPR assay relative to acetylcholine
Assay type: functional
Property name: Emax (%)
Just the number please, in %, no unit attached.

> print(dat)
                                   molecule                              assay.system  reported.value
1  CC(C)C1C(=S)Nc2ccc(Cl)cc2C(c2ccccc2)=[N+]1[O-] (stereo not given)  Muscarinic acetylcholine receptor M1 (Homo sapiens) (UniProt P11229)             112
2  CC(C)[C@@H]1N=C(c2ccccc2)c2cc(Cl)ccc2NC1=S  Muscarinic acetylcholine receptor M1 (Homo sapiens) (UniProt P11229)             102
3  COC(C)C1N=C(c2ccccc2)c2cc(Cl)ccc2NC1=S (racemic)  Muscarinic acetylcholine receptor M1 (Homo sapiens) (UniProt P11229)              98
4  CC1N=C(c2ccccc2)c2cc(C#N)ccc2NC1=S (stereo not given)  Muscarinic acetylcholine receptor M1 (Homo sapiens) (UniProt P11229)              47
5         Cc1ccc2c(c1)C(c1ccccc1)=NCC(=S)N2  Muscarinic acetylcholine receptor M1 (Homo sapiens) (UniProt P11229)              91
6  Cc1ccc2c(c1)C(c1ccccc1)=NC(C(C)C)C(=S)N2 (stereo not given)  Muscarinic acetylcholine receptor M1 (Homo sapiens) (UniProt P11229)             129

The molecule CC(C)[C@H]1N=C(c2ccccc2F)c2cc(Cl)ccc2NC1=S , tested on Muscarinic acetylcholine receptor M1 (Homo sapiens) (UniProt P11229), showed Emax of 119

The molecule S=C1Nc2ccc(Cl)cc2C(c2ccccc2)=N[C@H]1CC1CC1 , tested on Muscarinic acetylcholine receptor M1 (Homo sapiens) (UniProt P11229), showed Emax of 108

The molecule CC(C)[C@@H]1N=C(c2ccccc2)c2ccc(Cl)cc2NC1=S , tested on Muscarinic acetylcholine receptor M1 (Homo sapiens) (UniProt P11229), showed Emax of 117

The molecule CC(C)[C@@H]1N=C(c2ccccc2)c2cc(C(F)(F)F)ccc2NC1=S , tested on Muscarinic acetylcholine receptor M1 (Homo sapiens) (UniProt P11229), showed Emax of 72
